Each recorded value in this set is attributed to the Human Domainome abundance scans (Beltran et al. 2025).

B1: E3 ubiquitin-protein ligase NEDD4-like, residues 539 to 589; numbered along this chain, Q96PU5 (parent)
chain: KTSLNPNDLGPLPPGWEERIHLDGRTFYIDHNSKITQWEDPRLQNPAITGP

# Variants of: B1
# assay_overview: abundance fitness (aPCA) (normalised: wild type 0, dead -1); higher = more abundant; growth selection in yeast, the domain comes from the species named
# protocol_conditions: Homo sapiens
Could you label it yes (1) if measured abundance fitness is -0.6 or higher, and no (0) otherwise?

[[record]]
variant_label = "D23S"
assigned_label = "yes (1)"

[[record]]
variant_label = "L43R"
assigned_label = "yes (1)"

[[record]]
variant_label = "T2L"
assigned_label = "yes (1)"

[[record]]
variant_label = "G50Q"
assigned_label = "yes (1)"

[[record]]
variant_label = "G15P"
assigned_label = "yes (1)"

[[record]]
variant_label = "L12M"
assigned_label = "yes (1)"

[[record]]
variant_label = "P41K"
assigned_label = "no (0)"

[[record]]
variant_label = "T26W"
assigned_label = "no (0)"


Now consider the entry below.
Hi team, for "D40F" , is the recorded abundance fitness at or above -0.6?
yes (1)
